# System: Staphylococcus aureus
# Method Notes: Antibacterial activity against Staphylococcus aureus SA-1199B norA++ and A116E GrlA mutation by microdilution technique
# Format: functional
Measured Endpoint: MIC (µg/mL)

1. Cc1c(N2CCC3=C(C2)C(=O)CCS3)c(N)cc2c(=O)c(C(=O)O)cn(C3CC3)c12	0.63
2. CC1CSC2=C(CN(c3cc4c(cc3N)c(=O)c(C(=O)O)cn4C3CC3)CC2)/C1=N/O (stereo not given)	6.25
3. O=C1CCSC2=C1CN(c1cc3c(cc1F)c(=O)c(C(=O)O)cn3C1CC1)CC2	3.13
4. CO/N=C1/C2=C(CCN(c3cc4c(cc3N)c(=O)c(C(=O)O)cn4C3CC3)C2)SCC1C (stereo not given)	6.25
5. CO/N=C1\CCSC2=C1CN(c1c(N)cc3c(=O)c(C(=O)O)cn(C4CC4)c3c1C)CC2	0.31
